- Tested on: LNCaP
- EXPERIMENT: Cytotoxicity against human LNCAP cells after 48 hrs by MTT assay
- Type: functional, cell-based
A collection of compounds and their measured IC50

- SMILES TEXT: "COc1ccc(-c2noc(C3CCN(C(=O)OC(C)(C)C)CC3)n2)cc1OC1CCCC1"
  COMPARATIVE SIGN: "="
  IC50 (µM): 122
- SMILES TEXT: "COc1ccc(-c2noc(C3CCN(S(C)(=O)=O)CC3)n2)cc1OC1CCCC1"
  COMPARATIVE SIGN: "="
  IC50 (µM): 149
- SMILES TEXT: "COc1ccc(-c2nc(-c3cc(OC)c(OC)c(OC)c3)no2)cc1"
  COMPARATIVE SIGN: "="
  IC50 (µM): 327
- SMILES TEXT: "COc1ccc(-c2nc(-c3cc(OC)c(OC)c(OC)c3)no2)cc1OC"
  COMPARATIVE SIGN: ">"
  IC50 (µM): 1000
- SMILES TEXT: "COc1ccc(-c2noc(C3CCN(C(=O)OC(C)(C)C)CC3)n2)cc1OC"
  COMPARATIVE SIGN: "="
  IC50 (µM): 85.6

---

- Test system: MCF7
- EXPERIMENT: Cytotoxicity against human MCF7 cells after 48 hrs by MTT assay
- Format: functional, cell-based
- ASSAY CONDITIONS: MCF7, 48 h
pIC50: −log10 of the molar value.
A collection of compounds and their measured pIC50

- SMILES TEXT: "CCCCOc1cc(-c2noc(C3CCNCC3)n2)ccc1OC"
  COMPARATIVE SIGN: "="
  pIC50: 4.80
- SMILES TEXT: "COc1cc(-c2noc(C3CCN(C(=O)OC(C)(C)C)CC3)n2)cc(OC)c1OC"
  COMPARATIVE SIGN: "="
  pIC50: 4.36
- SMILES TEXT: "COc1ccc(-c2nc(-c3ccc(OC)c(OC4CCCC4)c3)no2)cc1OC"
  COMPARATIVE SIGN: "<"
  pIC50: 3.00
- SMILES TEXT: "COc1ccc(-c2nc(-c3cc(OC)c(OC)c(OC)c3)no2)cc1OC"
  COMPARATIVE SIGN: "<"
  pIC50: 3.00
- SMILES TEXT: "COc1ccc(-c2noc(C3CCNCC3)n2)cc1OC"
  COMPARATIVE SIGN: "="
  pIC50: 4.57
- SMILES TEXT: "COc1cc(-c2noc(C3CCNCC3)n2)cc(OC)c1OC"
  COMPARATIVE SIGN: "="
  pIC50: 3.49

---

- System: MCF7
- EXPERIMENT: Cytotoxicity against human MCF7 cells after 48 hrs by MTT assay
- Type: functional, cell-based
- ASSAY CONDITIONS: MCF7, 48 h
pIC50: −log10 of the molar value.
MEASUREMENT LABEL: pIC50

- SMILES TEXT: "COc1ccc(-c2noc(C3CCCC3)n2)cc1OC1CCCC1"
  READING: 4.21
- SMILES TEXT: "COc1ccc(-c2noc(C3CCCCC3)n2)cc1OC1CCCC1"
  READING: 4.24
- SMILES TEXT: "COc1ccc(-c2nnc(C3CCNCC3)s2)cc1OC1CCCC1"
  READING: 4.75
- SMILES TEXT: "COc1ccc(-c2noc(C3CCN(C(=O)OC(C)(C)C)CC3)n2)cc1OC1CCCC1"
  READING: 4.22
- SMILES TEXT: "COc1ccc(-c2noc(C(Cl)(Cl)Cl)n2)cc1OC1CCCC1"
  READING: 4.32
- SMILES TEXT: "CCOc1cc(-c2noc(C3CCNCC3)n2)ccc1OC"
  READING: 3.76

---

- Tested on: LNCaP
- EXPERIMENT: Cytotoxicity against human LNCAP cells after 48 hrs by MTT assay
- Type: functional, cell-based
pIC50: −log10 of the molar value.

- SMILES TEXT: "COc1ccc(-c2nnc(C3CCNCC3)s2)cc1OC1CCCC1"
  pIC50: 4.72
- SMILES TEXT: "CCOc1cc(-c2noc(C3CCN(C(=O)OC(C)(C)C)CC3)n2)ccc1OC"
  pIC50: 4.02
- SMILES TEXT: "CCOc1cc(-c2noc(C3CCNCC3)n2)ccc1OC"
  pIC50: 3.81
- SMILES TEXT: "COc1ccc(-c2noc(C3CCCC3)n2)cc1OC1CCCC1"
  pIC50: 3.86
- SMILES TEXT: "COc1ccc(-c2nc(-c3ccc(OC)c(OC4CCCC4)c3)no2)cc1OC"
  pIC50: 3.09
- SMILES TEXT: "CCCCOc1cc(-c2noc(C3CCNCC3)n2)ccc1OC"
  pIC50: 4.49
- SMILES TEXT: "COc1cc(-c2noc(C3CCN(C(=O)OC(C)(C)C)CC3)n2)ccc1OC1CCCC1"
  pIC50: 3.97
- SMILES TEXT: "COc1ccc(-c2nc(-c3ccc(OC)c(OC4CCCC4)c3)no2)cc1"
  pIC50: 3.07
- SMILES TEXT: "COc1cc(-c2noc(-c3cc(OC)c(OC)c(OC)c3)n2)cc(OC)c1OC"
  pIC50: 3.39
- SMILES TEXT: "COc1ccc(-c2nnc(C3CCNCC3)o2)cc1OC1CCCC1"
  pIC50: 3.51
- SMILES TEXT: "COc1cc(-c2noc(C3CCN(C(=O)OC(C)(C)C)CC3)n2)cc(OC)c1OC"
  pIC50: 4.32
- SMILES TEXT: "COc1cc(-c2noc(C3CCNCC3)n2)cc(OC)c1OC"
  pIC50: 3.92
- SMILES TEXT: "CCOC(=O)N1CCC(c2nc(-c3ccc(OC)c(OC4CCCC4)c3)no2)CC1"
  pIC50: 4.23
- SMILES TEXT: "COc1ccc(-c2noc(C3CCCCC3)n2)cc1OC1CCCC1"
  pIC50: 4.03
- SMILES TEXT: "COc1ccc(-c2noc(C3CCNCC3)n2)cc1OC"
  pIC50: 4.41
- SMILES TEXT: "COc1ccc(-c2noc(C(Cl)(Cl)Cl)n2)cc1OC1CCCC1"
  pIC50: 4.75
- SMILES TEXT: "CCCCOc1cc(-c2noc(C3CCN(C(=O)OC(C)(C)C)CC3)n2)ccc1OC"
  pIC50: 4.04
- SMILES TEXT: "COc1cc(-c2noc(C3CCNCC3)n2)ccc1OC1CCCC1"
  pIC50: 4.37

---

- System: MCF7
- EXPERIMENT: Cytotoxicity against human MCF7 cells after 48 hrs by MTT assay
- Type: functional, cell-based
- ASSAY CONDITIONS: MCF7, 48 h
MEASUREMENT LABEL: IC50 (µM)

- SMILES TEXT: "COc1ccc(-c2nc(-c3cc(OC)c(OC)c(OC)c3)no2)cc1"
  UNITS: "µM"
  COMPARATIVE SIGN: ">"
  READING: 1000
- SMILES TEXT: "COc1cc(-c2noc(C3CCNCC3)n2)ccc1OC1CCCC1"
  UNITS: "µM"
  COMPARATIVE SIGN: "="
  READING: 29
- SMILES TEXT: "COc1cc(-c2noc(-c3cc(OC)c(OC)c(OC)c3)n2)cc(OC)c1OC"
  UNITS: "µM"
  COMPARATIVE SIGN: ">"
  READING: 1000
- SMILES TEXT: "COc1ccc(-c2nnc(C3CCNCC3)o2)cc1OC1CCCC1"
  UNITS: "µM"
  COMPARATIVE SIGN: "="
  READING: 129
- SMILES TEXT: "CCCCOc1cc(-c2noc(C3CCN(C(=O)OC(C)(C)C)CC3)n2)ccc1OC"
  UNITS: "µM"
  COMPARATIVE SIGN: "="
  READING: 91
- SMILES TEXT: "COc1cc(-c2noc(C3CCN(C(=O)OC(C)(C)C)CC3)n2)ccc1OC1CCCC1"
  UNITS: "µM"
  COMPARATIVE SIGN: "="
  READING: 38
- SMILES TEXT: "COc1ccc(-c2noc(C3CCN(C(=O)OC(C)(C)C)CC3)n2)cc1OC"
  UNITS: "µM"
  COMPARATIVE SIGN: "="
  READING: 52.2
- SMILES TEXT: "CCOc1cc(-c2noc(C3CCN(C(=O)OC(C)(C)C)CC3)n2)ccc1OC"
  UNITS: "µM"
  COMPARATIVE SIGN: "="
  READING: 93.8
- SMILES TEXT: "COc1ccc(-c2nc(-c3ccc(OC)c(OC4CCCC4)c3)no2)cc1"
  UNITS: "µM"
  COMPARATIVE SIGN: ">"
  READING: 1000
- SMILES TEXT: "CCOC(=O)N1CCC(c2nc(-c3ccc(OC)c(OC4CCCC4)c3)no2)CC1"
  UNITS: "µM"
  COMPARATIVE SIGN: "="
  READING: 27
- SMILES TEXT: "COc1ccc(-c2noc(C3CCN(S(C)(=O)=O)CC3)n2)cc1OC1CCCC1"
  UNITS: "µM"
  COMPARATIVE SIGN: "="
  READING: 113
